Assignment: determine reported kon for the given binders.
# TESTED_TARGET: T1, cynomolgus monkey IL-17A (cynomolgus monkey, UniProt A0A2K5TTB0 24-155)
# T1 construct: biotinylated in the ELISA; also called cyno IL-17; Cyno IL-17A
# T1 sequence (A0A2K5TTB0 entry or part of it): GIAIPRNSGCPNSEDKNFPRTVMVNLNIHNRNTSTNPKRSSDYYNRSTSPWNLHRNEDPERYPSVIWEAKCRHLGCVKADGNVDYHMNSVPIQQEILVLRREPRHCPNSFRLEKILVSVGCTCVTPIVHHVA
# TEST_PROTOCOL: SPR (Biacore 3000), antibody captured by anti-Fc, antigen in solution;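 note: purified recombinant IL-17 antigens flowed over captured antibodies in HBS-EP buffer, global Langmuir one-to-one fit of association and dissociation phases, KD derived from koff over kon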
Write it as a number; the unit M⁻¹ s⁻¹ goes unstated.

What value of measured kon is listed for IL17-h5C5.18 (antibody, V domains shown, IgG; constant regions not specified; also called h5C5.18 (VH.1b-Vk.1c)) VH: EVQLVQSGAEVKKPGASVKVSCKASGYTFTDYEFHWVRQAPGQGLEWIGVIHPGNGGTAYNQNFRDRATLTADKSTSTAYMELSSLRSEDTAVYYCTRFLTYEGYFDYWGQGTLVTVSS VL: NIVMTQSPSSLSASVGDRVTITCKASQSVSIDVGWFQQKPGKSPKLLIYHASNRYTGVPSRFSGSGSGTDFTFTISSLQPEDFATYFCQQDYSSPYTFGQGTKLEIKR ?
581000

Same lookup for IL17-h5C5.14 (antibody, V domains shown, IgG; constant regions not specified; also called h5C5.14 (VH.1-Vk.3a)) VH: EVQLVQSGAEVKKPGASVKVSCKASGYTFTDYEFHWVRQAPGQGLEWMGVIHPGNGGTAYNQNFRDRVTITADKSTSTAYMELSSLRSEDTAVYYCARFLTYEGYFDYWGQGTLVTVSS VL: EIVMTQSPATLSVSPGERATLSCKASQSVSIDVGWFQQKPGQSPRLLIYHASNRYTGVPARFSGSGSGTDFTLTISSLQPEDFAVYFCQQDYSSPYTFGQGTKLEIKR , please.
934000

Try this binder next: IL17-h5C5.9 (antibody, V domains shown, IgG; constant regions not specified; also called h5C5.9 (VH.1b-Vk.1a)) VH: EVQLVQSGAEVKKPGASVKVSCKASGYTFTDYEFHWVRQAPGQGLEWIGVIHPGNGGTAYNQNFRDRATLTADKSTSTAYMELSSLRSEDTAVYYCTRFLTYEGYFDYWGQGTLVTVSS VL: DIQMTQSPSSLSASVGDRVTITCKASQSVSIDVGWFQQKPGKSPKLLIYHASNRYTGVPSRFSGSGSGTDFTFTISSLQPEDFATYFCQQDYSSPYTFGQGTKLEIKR
1.05e+06

Next binder up: IL17-h10F7.11 (antibody, V domains shown, IgG; constant regions not specified; also called h10F7.11 (VH.1a-Vk.2a)) VH: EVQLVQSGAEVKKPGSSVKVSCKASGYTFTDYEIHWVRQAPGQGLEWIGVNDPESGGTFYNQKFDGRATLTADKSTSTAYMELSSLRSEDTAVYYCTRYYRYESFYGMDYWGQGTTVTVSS VL: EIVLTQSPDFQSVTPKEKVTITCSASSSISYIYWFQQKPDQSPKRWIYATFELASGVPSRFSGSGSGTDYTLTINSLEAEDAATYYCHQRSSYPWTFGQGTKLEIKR
454000

Input IL17-h5C5.15 (antibody, V domains shown, IgG; constant regions not specified; also called h5C5.15 (VH.1b-Vk.3a)) VH: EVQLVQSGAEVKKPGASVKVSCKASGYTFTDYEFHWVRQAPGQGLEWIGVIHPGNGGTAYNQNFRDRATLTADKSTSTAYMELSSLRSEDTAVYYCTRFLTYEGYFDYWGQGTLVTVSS VL: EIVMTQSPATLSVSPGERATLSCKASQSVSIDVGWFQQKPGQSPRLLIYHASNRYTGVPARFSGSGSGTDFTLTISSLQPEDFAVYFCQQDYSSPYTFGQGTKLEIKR
603000
